Data origin: ChEMBL document CHEMBL4725465

- ASSAY_EXPLANATION: Apparent volume of distribution in Beagle dog at 0.5 mg/kg, iv measured up to 24 hrs
- Type: ADME, organism-based, Canis lupus familiaris
- SETUP_CONDITIONS: in vivo, read-out: Vz
Where a SMILES comes first, the peptide text is derived from it. [ ]: non-standard residue; d: D form. The star is where a group is joined. Gly(N-(2R-Ph-propyl)) = C[C@@H](CNCC(=O)O)c1ccccc1; X1 = CNC(=O)NC1CCN(*)CC1
QUANTITY_KIND: Vd (L/kg)
// units = L/kg; emit number, no label

Please report Vd for the following compound: CNC(=O)NC1CCN(C(=O)[C@@H](CCCCN)NC(=O)[C@@H](CC(C)C)NC(=O)[C@@H](Cc2ccccc2)NC(=O)CNC[C@H](C)c2ccccc2)CC1 (H-[Gly(N-(2R-Ph-propyl))][dF][dL][dK]-X1)
1.24

----------
- ASSAY_EXPLANATION: Clearance in Sprague-Dawley rat at 1 mg/kg, iv measured up to 24 hrs
- Format: ADME, organism-based
- SETUP_CONDITIONS: in vivo
Where a SMILES comes first, the peptide text is derived from it. [ ]: non-standard residue; d: D form. The star is where a group is joined. Gly(N-(2R-Ph-propyl)) = C[C@@H](CNCC(=O)O)c1ccccc1; X1 = CNC(=O)NC1CCN(*)CC1
QUANTITY_KIND: clearance (mL/min/kg)
// units = mL/min/kg; emit number, no label

Please report clearance for the following compound: CNC(=O)NC1CCN(C(=O)[C@@H](CCCCN)NC(=O)[C@@H](CC(C)C)NC(=O)[C@@H](Cc2ccccc2)NC(=O)CNC[C@H](C)c2ccccc2)CC1 (H-[Gly(N-(2R-Ph-propyl))][dF][dL][dK]-X1)
10.5

----------
- ASSAY_EXPLANATION: AUC (0 to t) in Beagle dog at 0.5 mg/kg, iv measured up to 24 hrs
- Type: ADME, organism-based, Canis lupus familiaris
- Parameters: route intravenous, dose 0.5 mg/kg, time <=24
- SETUP_CONDITIONS: in vivo
Where a SMILES comes first, the peptide text is derived from it. [ ]: non-standard residue; d: D form. The star is where a group is joined. Gly(N-(2R-Ph-propyl)) = C[C@@H](CNCC(=O)O)c1ccccc1; X1 = CNC(=O)NC1CCN(*)CC1
QUANTITY_KIND: AUC(0-t) at 24 h (ng·h/mL)
// units = ng·h/mL; emit number, no label

Please report AUC(0-t) at 24 h for the following molecule: CNC(=O)NC1CCN(C(=O)[C@@H](CCCCN)NC(=O)[C@@H](CC(C)C)NC(=O)[C@@H](Cc2ccccc2)NC(=O)CNC[C@H](C)c2ccccc2)CC1 (H-[Gly(N-(2R-Ph-propyl))][dF][dL][dK]-X1)
2620

----------
- TEST_SYSTEM: UniProt P11712
- Sequence (P11712 whole entry): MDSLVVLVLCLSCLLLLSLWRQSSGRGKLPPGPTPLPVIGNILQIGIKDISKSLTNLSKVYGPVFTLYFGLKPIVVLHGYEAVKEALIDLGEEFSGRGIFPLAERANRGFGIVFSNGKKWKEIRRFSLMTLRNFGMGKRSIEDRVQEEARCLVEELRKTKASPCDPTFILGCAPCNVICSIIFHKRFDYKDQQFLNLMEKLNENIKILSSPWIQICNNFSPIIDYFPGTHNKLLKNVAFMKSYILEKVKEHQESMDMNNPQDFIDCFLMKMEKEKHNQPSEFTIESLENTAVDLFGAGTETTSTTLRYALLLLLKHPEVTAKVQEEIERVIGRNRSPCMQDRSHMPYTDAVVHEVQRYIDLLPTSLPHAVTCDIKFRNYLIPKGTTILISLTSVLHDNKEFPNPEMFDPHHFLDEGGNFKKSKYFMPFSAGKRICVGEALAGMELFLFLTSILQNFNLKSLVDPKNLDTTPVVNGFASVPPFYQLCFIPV
Where a SMILES comes first, the peptide text is derived from it. [ ]: non-standard residue; d: D form. The star is where a group is joined. Gly(N-(2R-Ph-propyl)) = C[C@@H](CNCC(=O)O)c1ccccc1; X1 = CNC(=O)NC1CCN(*)CC1
QUANTITY_KIND: IC50

Please report the measured IC50 for CNC(=O)NC1CCN(C(=O)[C@@H](CCCCN)NC(=O)[C@@H](CC(C)C)NC(=O)[C@@H](Cc2ccccc2)NC(=O)CNC[C@H](C)c2ccccc2)CC1 (H-[Gly(N-(2R-Ph-propyl))][dF][dL][dK]-X1) tested on UniProt P11712.
> 30 µM

----------
- ASSAY_EXPLANATION: Clearance in Beagle dog at 0.5 mg/kg, iv measured up to 24 hrs
- Type: ADME, organism-based, Canis lupus familiaris
- SETUP_CONDITIONS: in vivo
Where a SMILES comes first, the peptide text is derived from it. [ ]: non-standard residue; d: D form. The star is where a group is joined. Gly(N-(2R-Ph-propyl)) = C[C@@H](CNCC(=O)O)c1ccccc1; X1 = CNC(=O)NC1CCN(*)CC1
QUANTITY_KIND: clearance (mL/min/kg)
// units = mL/min/kg; emit number, no label

Please report clearance for the following molecule: CNC(=O)NC1CCN(C(=O)[C@@H](CCCCN)NC(=O)[C@@H](CC(C)C)NC(=O)[C@@H](Cc2ccccc2)NC(=O)CNC[C@H](C)c2ccccc2)CC1 (H-[Gly(N-(2R-Ph-propyl))][dF][dL][dK]-X1)
3.1

----------
- TEST_SYSTEM: Cytochrome P450 3A4 (Homo sapiens, UniProt P08684)
- Sequence (P08684 whole entry): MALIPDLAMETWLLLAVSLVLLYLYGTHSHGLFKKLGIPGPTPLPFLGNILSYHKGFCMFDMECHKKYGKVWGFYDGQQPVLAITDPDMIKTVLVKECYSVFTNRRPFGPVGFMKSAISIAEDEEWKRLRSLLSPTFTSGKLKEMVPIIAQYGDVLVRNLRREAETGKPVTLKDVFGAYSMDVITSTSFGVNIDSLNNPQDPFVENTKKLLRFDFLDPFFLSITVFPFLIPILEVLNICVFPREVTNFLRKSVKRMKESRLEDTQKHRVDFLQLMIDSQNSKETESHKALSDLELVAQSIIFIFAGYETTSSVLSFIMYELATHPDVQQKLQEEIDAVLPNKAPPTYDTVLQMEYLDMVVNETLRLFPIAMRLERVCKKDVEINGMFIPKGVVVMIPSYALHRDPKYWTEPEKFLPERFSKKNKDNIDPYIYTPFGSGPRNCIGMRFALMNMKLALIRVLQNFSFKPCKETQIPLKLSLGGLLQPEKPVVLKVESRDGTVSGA
- ASSAY_EXPLANATION: Inhibition of CYP3A4 in human pooled liver microsomes using midazolam as substrate measured up to 20 mins by UHPLC-MS/MS analysis
- Format: ADME
Where a SMILES comes first, the peptide text is derived from it. [ ]: non-standard residue; d: D form. The star is where a group is joined. Gly(N-(2R-Ph-propyl)) = C[C@@H](CNCC(=O)O)c1ccccc1; X1 = CNC(=O)NC1CCN(*)CC1
QUANTITY_KIND: IC50

Please report the measured IC50 for CNC(=O)NC1CCN(C(=O)[C@@H](CCCCN)NC(=O)[C@@H](CC(C)C)NC(=O)[C@@H](Cc2ccccc2)NC(=O)CNC[C@H](C)c2ccccc2)CC1 (H-[Gly(N-(2R-Ph-propyl))][dF][dL][dK]-X1) tested on Cytochrome P450 3A4 (Homo sapiens, UniProt P08684).
> 30 µM

----------
- ASSAY_EXPLANATION: Half life in human liver microsomes
- Format: ADME, Microsome
Where a SMILES comes first, the peptide text is derived from it. [ ]: non-standard residue; d: D form. The star is where a group is joined. Gly(N-(2R-Ph-propyl)) = C[C@@H](CNCC(=O)O)c1ccccc1; X1 = CNC(=O)NC1CCN(*)CC1
QUANTITY_KIND: half-life
// unit must come after the numeric part

Please report half-life for the following molecule: CNC(=O)NC1CCN(C(=O)[C@@H](CCCCN)NC(=O)[C@@H](CC(C)C)NC(=O)[C@@H](Cc2ccccc2)NC(=O)CNC[C@H](C)c2ccccc2)CC1 (H-[Gly(N-(2R-Ph-propyl))][dF][dL][dK]-X1)
40 min

----------
- TEST_SYSTEM: Cytochrome P450 2C19 (Homo sapiens, UniProt P33261)
- Sequence (P33261 whole entry): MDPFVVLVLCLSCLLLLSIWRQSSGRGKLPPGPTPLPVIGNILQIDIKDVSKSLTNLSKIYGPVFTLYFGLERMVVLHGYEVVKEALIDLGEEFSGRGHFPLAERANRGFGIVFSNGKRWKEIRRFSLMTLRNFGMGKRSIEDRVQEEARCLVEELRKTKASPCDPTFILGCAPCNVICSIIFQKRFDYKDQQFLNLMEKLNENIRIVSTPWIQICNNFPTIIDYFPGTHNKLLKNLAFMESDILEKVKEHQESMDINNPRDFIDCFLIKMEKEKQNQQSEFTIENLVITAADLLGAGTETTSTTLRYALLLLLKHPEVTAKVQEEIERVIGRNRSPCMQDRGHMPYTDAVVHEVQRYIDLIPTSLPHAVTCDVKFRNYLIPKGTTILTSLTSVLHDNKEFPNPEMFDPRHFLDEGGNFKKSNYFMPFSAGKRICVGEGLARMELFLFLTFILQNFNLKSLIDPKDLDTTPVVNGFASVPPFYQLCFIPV
pIC50: −log10 of the molar value. Where a SMILES comes first, the peptide text is derived from it. [ ]: non-standard residue; d: D form. The star is where a group is joined. Gly(N-(2R-Ph-propyl)) = C[C@@H](CNCC(=O)O)c1ccccc1; X1 = CNC(=O)NC1CCN(*)CC1
QUANTITY_KIND: pIC50

Please report pIC50 for the following compound: CNC(=O)NC1CCN(C(=O)[C@@H](CCCCN)NC(=O)[C@@H](CC(C)C)NC(=O)[C@@H](Cc2ccccc2)NC(=O)CNC[C@H](C)c2ccccc2)CC1 (H-[Gly(N-(2R-Ph-propyl))][dF][dL][dK]-X1)
< 4.52

----------
- ASSAY_EXPLANATION: Apparent volume of distribution in Sprague-Dawley rat at 1 mg/kg, iv measured up to 24 hrs
- Format: ADME, organism-based
- SETUP_CONDITIONS: in vivo, read-out: Vz
Where a SMILES comes first, the peptide text is derived from it. [ ]: non-standard residue; d: D form. The star is where a group is joined. Gly(N-(2R-Ph-propyl)) = C[C@@H](CNCC(=O)O)c1ccccc1; X1 = CNC(=O)NC1CCN(*)CC1
QUANTITY_KIND: Vd (L/kg)
// units = L/kg; emit number, no label

Please report Vd for the following compound: CNC(=O)NC1CCN(C(=O)[C@@H](CCCCN)NC(=O)[C@@H](CC(C)C)NC(=O)[C@@H](Cc2ccccc2)NC(=O)CNC[C@H](C)c2ccccc2)CC1 (H-[Gly(N-(2R-Ph-propyl))][dF][dL][dK]-X1)
4.51

----------
- TEST_SYSTEM: Cytochrome P450 3A4 (Homo sapiens)
- ASSAY_EXPLANATION: Inhibition of CYP3A4 in human pooled liver microsomes using testosterone as substrate measured up to 20 mins by UHPLC-MS/MS analysis
- Type: ADME
pIC50: −log10 of the molar value. Where a SMILES comes first, the peptide text is derived from it. [ ]: non-standard residue; d: D form. The star is where a group is joined. Gly(N-(2R-Ph-propyl)) = C[C@@H](CNCC(=O)O)c1ccccc1; X1 = CNC(=O)NC1CCN(*)CC1
QUANTITY_KIND: pIC50

Please report pIC50 for the following compound: CNC(=O)NC1CCN(C(=O)[C@@H](CCCCN)NC(=O)[C@@H](CC(C)C)NC(=O)[C@@H](Cc2ccccc2)NC(=O)CNC[C@H](C)c2ccccc2)CC1 (H-[Gly(N-(2R-Ph-propyl))][dF][dL][dK]-X1)
< 4.52
